- System tested: Ab-15
- Sequence (heavy, as listed by the source, chain 1 of 2): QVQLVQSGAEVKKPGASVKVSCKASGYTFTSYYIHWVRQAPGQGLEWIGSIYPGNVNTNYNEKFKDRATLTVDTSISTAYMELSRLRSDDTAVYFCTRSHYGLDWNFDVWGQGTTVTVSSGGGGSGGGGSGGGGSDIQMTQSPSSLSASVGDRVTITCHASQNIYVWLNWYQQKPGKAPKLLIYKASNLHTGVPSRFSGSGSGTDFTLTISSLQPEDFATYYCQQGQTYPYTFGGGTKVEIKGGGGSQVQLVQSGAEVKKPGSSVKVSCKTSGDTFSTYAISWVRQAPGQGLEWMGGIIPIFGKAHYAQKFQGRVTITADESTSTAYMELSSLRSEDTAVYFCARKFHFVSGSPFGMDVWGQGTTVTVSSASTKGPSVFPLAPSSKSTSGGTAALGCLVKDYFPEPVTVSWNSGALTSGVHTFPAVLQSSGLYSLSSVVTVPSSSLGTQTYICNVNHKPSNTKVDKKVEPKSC
- Sequence (light, as listed by the source, chain 2 of 2): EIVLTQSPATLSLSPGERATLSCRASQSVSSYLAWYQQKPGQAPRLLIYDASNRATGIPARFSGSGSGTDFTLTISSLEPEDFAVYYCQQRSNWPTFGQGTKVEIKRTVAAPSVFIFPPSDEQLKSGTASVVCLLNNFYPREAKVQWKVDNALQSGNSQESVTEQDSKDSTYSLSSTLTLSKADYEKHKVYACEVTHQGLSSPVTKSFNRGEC
- Assay details: BLI (Octet): biotinylated peptide on sensor, Ab-15 titrated, 1:1 model
Where no end group is shown, it is not given here.
Label scheme for t1/2: lower than 5 min is No, 5 min and above is Yes.

[
  {
    "Binder": "MDWCPRDLWVHCFA (cysteine pairing not given here; also: biotinylated, site not given here, CD28 peptide mask) [Peptide-41]",
    "Qualitative label": "Yes"
  },
  {
    "Binder": "RDWCPRDLWVHCFA (cysteine pairing not given here; also: biotinylated, site not given here, CD28 peptide mask) [Peptide-53]",
    "Qualitative label": "Yes"
  },
  {
    "Binder": "EDWCPRDLWVHCFA (cysteine pairing not given here; also: biotinylated, site not given here, CD28 peptide mask) [Peptide-57]",
    "Qualitative label": "No"
  },
  {
    "Binder": "KDWCPRDLWVHCFA (cysteine pairing not given here; also: biotinylated, site not given here, CD28 peptide mask) [Peptide-62]",
    "Qualitative label": "No"
  },
  {
    "Binder": "QDWCPRDLWVHCFA (cysteine pairing not given here; also: biotinylated, site not given here, CD28 peptide mask) [Peptide-56]",
    "Qualitative label": "No"
  },
  {
    "Binder": "TDWCPRDLWVHCFA (cysteine pairing not given here; also: biotinylated, site not given here, CD28 peptide mask) [Peptide-66]",
    "Qualitative label": "No"
  }
]

// data source = patent US20260242478A1
